All figures here come from PubChem BioAssay AID2307.

targetUnderTest: Regulator of G-protein signaling 8 (Homo sapiens)
assayOverview: RGS8-Galphao interaction modulators, SAR follow-up, biochemical, multiplex bead flow cytometry, SAR compounds (AID 2307)
studyConditions: bead-based flow cytometry, AF488-Galphao binding to RGS8; measured here: Ki calculated from EC50
Output TRUE for records whose Ki is lower than 400 nM, FALSE for records at or above 400 nM.

compound: Cc1cccc(N2CCN(C(=O)COc3nsc4nc(C)cc(C)c34)CC2C)c1 (centres undefined)
assignedLabel: FALSE

In plain terms, does CC1(C)OC(=O)C(=Cc2ccc(-c3ccc(S(N)(=O)=O)cc3)o2)C(=O)O1 come in under 400 nM for Ki?
FALSE

In plain terms, does COc1ccc(C2=CC(=O)C=CC2=O)cc1 come in under 400 nM for Ki?
TRUE

In plain terms, does CC(NC(=O)c1sc2cc([N+](=O)[O-])ccc2c1Cl)C(C)(C)C (centres undefined) come in under 400 nM for Ki?
TRUE

In plain terms, does CCOC(=O)c1sc(NC(=O)CSc2nnc(Cc3ccccc3)o2)c(C#N)c1C come in under 400 nM for Ki?
TRUE

In plain terms, does Cc1[nH]n(-c2ccccc2)c(=S)c1C=NCCCN=Cc1c(C)[nH]n(-c2ccccc2)c1=S come in under 400 nM for Ki?
FALSE

In plain terms, does CCN(CC)S(=O)(=O)c1cccc(-c2n[nH]c(=S)n2/N=C/c2ccc(C(=O)OC)cc2)c1 come in under 400 nM for Ki?
FALSE

In plain terms, does COC(=O)CCC(=O)Nc1sc(C)c(C)c1C(N)=O come in under 400 nM for Ki?
FALSE

In plain terms, does O=C(Cc1csc(N2CCOCC2)n1)N/N=C/c1ccc(O)c(O)c1O come in under 400 nM for Ki?
TRUE

---

targetUnderTest: Regulator of G-protein signaling 8 (Homo sapiens) (UniProt P57771)
Sequence (P57771 whole entry, looked up): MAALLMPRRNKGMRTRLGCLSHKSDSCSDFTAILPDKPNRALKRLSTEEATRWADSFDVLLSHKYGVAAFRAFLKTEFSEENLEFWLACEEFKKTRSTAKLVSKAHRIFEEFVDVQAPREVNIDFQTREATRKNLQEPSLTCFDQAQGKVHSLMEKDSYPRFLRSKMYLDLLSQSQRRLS
assayOverview: RGS8-Galphao interaction modulators, SAR follow-up, biochemical, multiplex bead flow cytometry, SAR compounds (AID 2307)
studyConditions: bead-based flow cytometry, AF488-Galphao binding to RGS8; measured here: Ki calculated from EC50
measureName: pKi
Note on pKi: it is the negative log10 of concentration, concentration in mol/L.

molecule: CN1CCN(C2=C(Cl)C(=O)C(c3cnc(N4CCCCC4)s3)=C(Cl)C2=O)CC1
recordedNumber: 7.70
--
molecule: CCC(=O)NC(c1ccc(C)cc1)c1cc([N+](=O)[O-])c2cccnc2c1O (stereo not given)
recordedNumber: 5.44
--
molecule: O=C1C(Cl)=C(N2CCCCC2)C(=O)C(Cl)=C1c1cnc(N2CCCCC2)s1
recordedNumber: 7.22
--
molecule: CC(=O)OCCCNc1cc(Sc2nc3ccccc3s2)c2nonc2c1[N+](=O)[O-]
recordedNumber: 7.15

Suppose we examine the molecule Cc1cccc(N2CCN(C(=O)Cn3sc4nc(C)cc(C)c4c3=O)CC2C)c1 (stereo not given) ; what pKi value has been reported?
6.34

---

targetUnderTest: Regulator of G-protein signaling 8 (Homo sapiens) (UniProt P57771)
assayOverview: RGS8-Galphao interaction modulators, SAR follow-up, biochemical, multiplex bead flow cytometry, SAR compounds (AID 2307)
studyConditions: bead-based flow cytometry, AF488-Galphao binding to RGS8
measureName: pEC50
Note on pEC50: it is the negative log10 of concentration, concentration in mol/L.

Suppose we examine the molecule NS(=O)(=O)c1ccc(N/N=C/c2ccc(O)c(O)c2O)c([N+](=O)[O-])c1 ; what pEC50 value has been reported?
7.54

---

targetUnderTest: Regulator of G-protein signaling 8 (Homo sapiens) (UniProt P57771)
assayOverview: RGS8-Galphao interaction modulators, SAR follow-up, biochemical, multiplex bead flow cytometry, SAR compounds (AID 2307)
studyConditions: bead-based flow cytometry, AF488-Galphao binding to RGS8; measured here: Ki calculated from EC50
Entries and their Ki
# output: bare number, implied unit nM

compound: NS(=O)(=O)c1ccc(N/N=C/c2ccc(O)c(O)c2O)c([N+](=O)[O-])c1
Ki [nM]: 20
--
compound: Cc1cc(Cl)ccc1N=c1ssnc1Cl
Ki [nM]: 110
--
compound: CCN(CC)S(=O)(=O)c1cccc(C(=O)N/N=C/c2ccc(O)c(O)c2O)c1
Ki [nM]: 340

Suppose we examine the compound O=C(COc1ccccc1C(=O)N/N=C/c1ccc(O)c(O)c1)N/N=C/c1ccc(O)c(O)c1 ; what Ki value has been reported?
100

Suppose we examine the compound O=C(NCCCN1CCOCC1)c1sc2cc([N+](=O)[O-])ccc2c1Cl ; what Ki value has been reported?
470

---

Entries and their log10 of Ki
targetUnderTest: Regulator of G-protein signaling 8 (Homo sapiens) (UniProt P57771)
assayOverview: RGS8-Galphao interaction modulators, SAR follow-up, biochemical, multiplex bead flow cytometry, SAR compounds (AID 2307)
studyConditions: bead-based flow cytometry, AF488-Galphao binding to RGS8; measured here: Ki calculated from EC50
Form field - Quantity: Ki; Unit: nM; Scale: log10

Observe how each entry below is paired with its result.
compound: Nc1c(C(=O)NCC2CCCO2)sc2nc3c(c(-c4ccco4)c12)CC/C3=C/c1ccco1 (stereo not given)
log10 of Ki: 2.60

compound: Cc1[nH]n(-c2ccccc2)c(=S)c1C=Nc1cccc([N+](=O)[O-])c1
log10 of Ki: 2.26

compound: CN=c1scc(C)n1/N=C/c1ccc(O)c(O)c1O
log10 of Ki: 2.41

Suppose we examine the compound O=c1c2ccccc2sn1-c1ccc(S(=O)(=O)N2CCCC2)cc1 ; what log10 of Ki value has been reported?
1.30

Suppose we examine the compound CCN=c1scc(C)n1/N=C/c1ccc(O)c(O)c1O ; what log10 of Ki value has been reported?
2.67
